Provide the recorded DC50 for the entries that follow.
# target.desc: KRas-G12D (Homo sapiens, UniProt P01116, G12D)
# Construct: insert the HiBiT tag onto the N-terminus of one or more of the endogenous KRas alleles; host or cells: AsPC-1 HiBiT-KRasG12D knock-in clone (one tagged allele, two untagged KRasG12D alleles)
# Sequence (P01116 1-188 isoform P01116-2 G12D): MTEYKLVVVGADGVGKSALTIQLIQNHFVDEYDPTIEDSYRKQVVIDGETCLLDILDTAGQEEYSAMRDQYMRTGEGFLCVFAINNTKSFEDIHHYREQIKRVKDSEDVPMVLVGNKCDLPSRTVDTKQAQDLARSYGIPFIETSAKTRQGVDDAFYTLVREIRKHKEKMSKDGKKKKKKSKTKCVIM
# experiment.notes: HiBiT Degradation Assay (G12D), AsPC-1 HiBiT-KRasG12D cells, 24 hr
# Format: cell-based
# condition: AsPC-1 cells
# Procedure: AsPC-1 (CRL-1682) cells were purchased from ATCC and are homozygous for the G12D mutation in KRas. […] AsPC-1 HiBiT-KRasG12D cells were plated at 9000 or 15,000 cells/well in a 384 well plate (Corning #3770). […] Plates were then allowed to equilibrate to RT and fluorescence was measured using a Perkin-Elmer EnVision. After completion of the fluorescence read, the liquid from each well was removed and the cells were washed with PBS. […]

Input line: Which DC50 value is on record for CCc1cccc2cc(O)cc(-c3ncc4c(N5CC6CCC(C5)N6)nc(OCCN5CCC(CN6CCN(c7cccc8c7CN(C7CCC(=O)NC7=O)C8=O)CC6)CC5)nc4c3F)c12 (stereo not shown) ?
Output line: 250 to 1000 nM

Input line: Fill blank: measured DC50 of the compound CCc1cccc2cc(O)cc(-c3ncc4c(N5CC6CCC(C5)N6)nc(OCCN5CCC(CCCN6CCN(c7ccc8c(c7)C(=O)N(C7CCC(=O)NC7=O)C8=O)CC6)CC5)nc4c3F)c12 (stereo not shown) is ____.
Output line: 250 to 1000 nM

Input line: // DC50 lookup, key: C#Cc1c(F)ccc2cc(O)cc(-c3ncc4c(N5CC6CCC(C5)N6)nc(OCCN5CCC6(CC5)CN(CC5(F)CCN(c7ccc8c(c7F)CN(C7CCC(=O)NC7=O)C8=O)CC5)C6)nc4c3F)c12 (stereo not shown)
Output line: < 5100 nM

Input line: May I ask what DC50 has been recorded for C#Cc1c(F)ccc2cc(O)cc(-c3ncc4c(N5CC6CCC(C5)N6)nc(OCC5(CN6CCN(CC7CCN(c8ccc9c(c8Cl)CN(C8CCC(=O)NC8=O)C9=O)CC7)CC6)CC5)nc4c3F)c12 (stereo not shown) ?
Output line: < 5100 nM

Input line: Which value of DC50 has been reported for CCc1cccc2cc(O)cc(-c3ncc4c(N5CC6CCC(C5)N6)nc(OC[C@@]56CCCN5[C@H](COC(=O)N5CCN(c7cccc8c7CN(C7CCC(=O)NC7=O)C8=O)CC5)CC6)nc4c3F)c12 (stereo partly shown) in the records?
Output line: 100 to 5250 nM

Input line: # input compound: CCc1cccc2cc(O)cc(-c3ncc4c(N5CC6CCC(C5)N6)nc(OCCN5CCC(F)(CC6CCN(c7cccc8c7CN(C7CCC(=O)NC7=O)C8=O)CC6)CC5)nc4c3F)c12 (stereo not shown) ; wanted: its DC50
Output line: 250 to 1000 nM

Input line: Give its DC50 value. Item: CCc1cccc2cc(O)cc(-c3ncc4c(N5CC6CCC(C5)N6)nc(OCCN5CCC(CN6CC7(C6)CN(c6ccc8c(c6)C(=O)N(C6CCC(=O)NC6=O)C8=O)C7)CC5)nc4c3F)c12 (stereo not shown)
Output line: 100 to 5250 nM

Input line: I would be grateful if you could share the reported DC50 for C#Cc1c(F)ccc2cc(O)cc(-c3ncc4c(N5CC6CCC(C5)N6)nc(OCC5(CN6CCC(CC7CCN(CC8CN(c9ccc%10c(c9)n(C)c(=O)n%10C9CCC(=O)NC9=O)C8)CC7)CC6)CC5)nc4c3F)c12 (stereo not shown) .
Output line: < 5100 nM

Input line: Quick one: DC50 of C#Cc1c(F)ccc2cc(O)cc(-c3ncc4c(N5CC6CCC(C5)N6)nc(OCCN5CCC(C(F)(F)C6CCN(CC7CCN(c8ccc9c(c8F)CN(C8CCC(=O)NC8=O)C9=O)CC7)CC6)CC5)nc4c3F)c12 (stereo not shown) ?
Output line: < 5100 nM

Input line: # DC50 lookup, item C#Cc1c(F)ccc2cc(O)cc(-c3ncc4c(N5CC6CCC(C5)N6)nc(OCCN5CCC(CC6CCN(CC7CCN(c8ccc9c(c8)C(=O)N(C8CCC(=O)NC8=O)C9)CC7)CC6)CC5)nc4c3F)c12 (stereo not shown)
Output line: < 5100 nM

Origin of values: patent US12448399B2
